All values here come from patent US7795236B2.

Target: human CNT2 (Homo sapiens, UniProt O43868, I160M/P22L/S45C)
Assay: Inhibitory activity against uptake of inosine through human CNT2
Details: 14C-labeled inosine 10 μM, COS-7 cells transiently expressing human CNT2, 30 minutes at 37° C.
Measured endpoint: IC50 (nM)

(1) NCCCOc1cccc(-c2ccc(CNc3nc4c(N)ncnc4n3[C@@H]3O[C@H](CO)[C@@H](O)[C@@H]3O)cc2)c1
(2) NC(=O)[C@H](Cc1ccc(O)cc1)NCCCOc1cccc(-c2ccc(CNc3nc4c(N)ncnc4n3[C@@H]3O[C@H](CO)[C@@H](O)[C@H]3O)cc2)c1
(3) C[N+](C)(C)CCCOc1cccc(-c2ccc(CNc3nc4c(N)ncnc4n3[C@@H]3O[C@H](CO)[C@@H](O)[C@H]3O)cc2)c1
Inquiry: List the compounds shown above again, sorted by falling IC50 values. Write the labels out in the order the request specifies.
Reply text: 1, 3, 2

====

Molecular target: human CNT2 (Homo sapiens, UniProt O43868, I160M/P22L/S45C)
Assay: Inhibitory activity against uptake of inosine through human CNT2
Settings: 14C-labeled inosine 10 μM, COS-7 cells transiently expressing human CNT2, 30 minutes at 37° C.
Measured endpoint: IC50 (µM)

Below are worked cases with known answers.
Inquiry: Recorded IC50 of `NCCCOc1ccc(-c2cccc(CNc3nc4c(N)ncnc4n3[C@@H]3O[C@H](CO)[C@@H](O)[C@H]3O)c2)cc1` , please.
Reply text: 0.176

Inquiry: What value of IC50 has been reported for the following compound? `Nc1ncnc2c1nc(NCc1ccc(-c3ccsc3)cc1)n2[C@@H]1O[C@H](CO)[C@@H](O)[C@H]1O`
Reply text: 0.649

Inquiry: Entry `CCCNCCCOc1cc(CNc2nc3c(N)ncnc3n2[C@@H]2O[C@H](CO)[C@@H](O)[C@H]2O)ccc1-c1ccccc1` has what IC50?
Reply text: 0.321

Inquiry: Tell me the measured IC50 of `Nc1ncnc2c1nc(NCc1ccc(-c3ccccc3)c(OCCCN3CCCC3)c1)n2[C@@H]1O[C@H](CO)[C@@H](O)[C@H]1O` , please.
Reply text: 0.444

(a) NCCCOc1cc(CNc2nc3c(N)ncnc3n2[C@@H]2O[C@H](CO)[C@@H](O)[C@@H]2O)ccc1-c1ccccc1
(b) CN(C)CCCOc1cccc(-c2ccc(CNc3nc4c(N)ncnc4n3[C@@H]3O[C@H](CO)[C@@H](O)[C@H]3O)cc2)c1
Inquiry: Hi, I'm comparing a with b and wondering which one has the bigger number for IC50. Any idea? Answer by stating the label of the chosen item.
Reply text: a

====

Target: human CNT2 (Homo sapiens, UniProt O43868, I160M/P22L/S45C)
Sequence (O43868 1-658 P22L/S45C/I160M): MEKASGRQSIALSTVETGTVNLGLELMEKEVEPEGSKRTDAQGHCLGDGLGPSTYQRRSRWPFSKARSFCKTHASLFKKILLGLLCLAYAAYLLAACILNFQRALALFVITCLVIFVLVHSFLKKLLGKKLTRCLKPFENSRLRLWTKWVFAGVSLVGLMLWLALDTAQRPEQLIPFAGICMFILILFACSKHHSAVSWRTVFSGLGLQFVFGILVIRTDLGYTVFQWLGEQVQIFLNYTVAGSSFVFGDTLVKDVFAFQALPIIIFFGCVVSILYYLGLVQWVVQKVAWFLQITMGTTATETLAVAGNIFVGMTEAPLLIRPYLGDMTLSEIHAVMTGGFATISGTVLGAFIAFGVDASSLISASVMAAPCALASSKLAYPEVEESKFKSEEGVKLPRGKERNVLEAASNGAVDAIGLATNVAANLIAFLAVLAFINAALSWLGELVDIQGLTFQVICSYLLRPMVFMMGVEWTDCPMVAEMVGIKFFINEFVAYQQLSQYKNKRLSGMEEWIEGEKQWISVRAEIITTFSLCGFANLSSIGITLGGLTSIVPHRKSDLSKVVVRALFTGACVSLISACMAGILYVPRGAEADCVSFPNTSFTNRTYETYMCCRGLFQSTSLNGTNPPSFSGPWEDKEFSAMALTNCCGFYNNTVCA
Assay: Inhibitory activity against uptake of inosine through human CNT2
Conditions: 14C-labeled inosine 10 μM, COS-7 cells transiently expressing human CNT2, 30 minutes at 37° C.
Protocol: Expression plasmid of human CNT2 was transfected into COS-7 cells (RIKEN CELL BANK RCB0539) by lipofection method. LIPOFECTAMINE 2000 (Invitrogen) was used as a lipofection reagent. COS-7 cells were diluted in D-MEM (Invitrogen) containing 10% fetal calf serum (Sanko Junyaku) at 5×10^5/1 mL, and seeded into collagen-coated 96-well plates (IWAKI) at 100 μL/well and cultured at 37° C. for 2 hours with 5% CO2 condition. […]
Measured endpoint: IC50 (nM)

Inquiry: Give its IC50 value. Item: Nc1ncnc2c1nc(NCc1ccc(-c3cccc(OCCCN4CCCCC4)c3)cc1)n2[C@@H]1O[C@H](CO)[C@@H](O)[C@H]1O [Example 125]
Reply text: 528

(1) CCN(CC)CCCOc1cc(CNc2nc3c(N)ncnc3n2[C@@H]2O[C@H](CO)[C@@H](O)[C@H]2O)ccc1-c1ccccc1 [Example 115]
(2) CCN(CCO)CCCOc1cc(CNc2nc3c(N)ncnc3n2[C@@H]2O[C@H](CO)[C@@H](O)[C@H]2O)ccc1-c1ccccc1 [Example 130]
Inquiry: Look at 1 and 2 . Which one has the lower recorded IC50 number? Mark your answer with the label of the selected entry.
Reply text: 2
(2: 223 nM, 1: 378 nM)

(a) N=C(N)NCCCOc1cccc(-c2ccc(CNc3nc4c(N)ncnc4n3[C@@H]3O[C@H](CO)[C@@H](O)[C@H]3O)cc2)c1 [Example 157]
(b) CN(C)CCCOc1cccc(-c2ccc(CCNc3nc4c(N)ncnc4n3[C@@H]3O[C@H](CO)[C@@H](O)[C@H]3O)cc2)c1 [Example 171]
Inquiry: Lower value of IC50 belongs to which: a or b ? Respond with the label that goes with your answer.
Reply text: a

====

Biological target: human CNT2 (Homo sapiens, UniProt O43868)
Sequence (O43868 1-658 P22L/S45C/I160M): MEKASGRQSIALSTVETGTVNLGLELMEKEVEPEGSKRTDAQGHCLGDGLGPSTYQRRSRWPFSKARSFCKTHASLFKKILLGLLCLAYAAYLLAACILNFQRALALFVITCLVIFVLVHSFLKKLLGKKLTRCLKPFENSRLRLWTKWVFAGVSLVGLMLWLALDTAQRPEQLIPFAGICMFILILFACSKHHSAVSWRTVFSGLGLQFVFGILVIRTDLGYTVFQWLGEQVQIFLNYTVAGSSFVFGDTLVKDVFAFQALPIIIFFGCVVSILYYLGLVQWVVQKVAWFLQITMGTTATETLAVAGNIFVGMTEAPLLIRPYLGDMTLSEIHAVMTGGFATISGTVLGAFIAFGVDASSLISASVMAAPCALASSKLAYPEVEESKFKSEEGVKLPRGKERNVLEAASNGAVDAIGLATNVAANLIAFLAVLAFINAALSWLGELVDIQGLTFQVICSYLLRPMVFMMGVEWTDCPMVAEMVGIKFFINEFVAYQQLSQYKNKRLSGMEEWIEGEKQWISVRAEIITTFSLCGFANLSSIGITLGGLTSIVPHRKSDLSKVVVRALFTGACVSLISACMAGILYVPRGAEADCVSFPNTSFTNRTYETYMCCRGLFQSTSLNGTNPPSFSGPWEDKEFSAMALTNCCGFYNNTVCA
Test: Inhibitory activity against uptake of adenosine through human CNT2
Conditions: 14C-labeled adenosine 10 μM, COS-7 cells transiently expressing human CNT2, 30 minutes at 37° C.
Measured endpoint: IC50 (nM)
Entry rule: numbers only, all in nM.

Inquiry: Notebook: pull reported IC50 for human CNT2 (Homo sapiens, UniProt O43868), entry Nc1ncnc2c1nc(NCc1ccc(-c3ccccc3)c(OCCCCO)c1)n2[C@@H]1O[C@H](CO)[C@@H](O)[C@H]1O [Example 82]
Reply text: 297
